This section presents compounds with their documented remaining activity at 3 µM values.
# tested.on: PADI4 (Homo sapiens)
# Construct: His6; made in house
# Sequence (Q9UM07 whole entry): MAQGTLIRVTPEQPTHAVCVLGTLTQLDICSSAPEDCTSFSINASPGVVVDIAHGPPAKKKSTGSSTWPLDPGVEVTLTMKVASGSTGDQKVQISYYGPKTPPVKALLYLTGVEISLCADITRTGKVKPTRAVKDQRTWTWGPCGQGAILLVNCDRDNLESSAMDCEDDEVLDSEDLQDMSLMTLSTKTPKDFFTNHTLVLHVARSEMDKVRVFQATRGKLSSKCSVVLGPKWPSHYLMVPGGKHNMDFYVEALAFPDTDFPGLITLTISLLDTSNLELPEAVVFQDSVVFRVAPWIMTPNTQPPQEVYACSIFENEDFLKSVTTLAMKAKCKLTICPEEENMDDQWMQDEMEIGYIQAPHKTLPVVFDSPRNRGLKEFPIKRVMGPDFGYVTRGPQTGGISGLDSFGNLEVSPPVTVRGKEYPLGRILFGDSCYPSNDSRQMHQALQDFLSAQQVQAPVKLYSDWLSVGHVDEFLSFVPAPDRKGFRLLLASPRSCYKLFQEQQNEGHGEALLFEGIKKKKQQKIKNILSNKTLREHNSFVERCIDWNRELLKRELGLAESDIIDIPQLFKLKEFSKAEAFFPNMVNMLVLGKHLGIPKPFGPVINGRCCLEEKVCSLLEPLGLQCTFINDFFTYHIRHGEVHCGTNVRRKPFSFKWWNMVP
# test.method.notes: COLDER inhibition assay, BAEE substrate, with or without 1 h preincubation
# Format: biochemical
# condition: peptide 3 µM, T=0; read-out: PADI4 activity normalised to 0.1% DMSO
Where a SMILES comes first, the peptide text is derived from it. Bridges are numbered along the chain shown (N, C = ends). [ ]: non-standard residue; d: D form. Orn(fluoroacetimidoyl) = N=C(CF)NCCC[C@H](N)C(=O)O
Form entry: value (%) — number only.

Sample answers from the record:
Value of remaining activity at 3 µM reported for the compound N=C(N)NCCC[C@@H]1NC(=O)[C@H](CCCCN)NC(=O)[C@H](CC(N)=O)NC(=O)[C@H](Cc2ccccc2)NC(=O)[C@H](CC(=O)O)NC(=O)[C@H](Cc2c[nH]c3ccccc23)NC(=O)[C@H](CC(N)=O)NC(=O)[C@H](CCCNC(=N)CF)NC(=O)[C@H](Cc2ccc(O)cc2)NC(=O)[C@H](Cc2c[nH]c3ccccc23)NC(=O)[C@@H](Cc2ccc(O)cc2)NC(=O)CSC[C@@H](C(=O)NCC(N)=O)NC1=O [cP4_10, yWY(2)NWDFNKRCG] ({CH2CO}-[dY]WY[Orn(fluoroacetimidoyl)]NWDFNKRCG-NH2; thioether N-12) is 48.4

Value of remaining activity at 3 µM reported for the compound N=C(N)NCCC[C@@H]1NC(=O)[C@H](CCCNC(=N)CF)NC(=O)[C@H](CC(=O)O)NC(=O)[C@H](Cc2ccc(O)cc2)NC(=O)[C@H](CCCCN)NC(=O)[C@H](CO)NC(=O)[C@@H](Cc2ccc(O)cc2)NC(=O)CSC[C@@H](C(=O)NCC(N)=O)NC(=O)[C@H](CC(=O)O)NC(=O)[C@H](CCCNC(=N)N)NC(=O)[C@@H]2CCCN2C(=O)[C@H](CO)NC1=O [cP4_4, ySKYD(2)RSPRDCG] ({CH2CO}-[dY]SKYD[Orn(fluoroacetimidoyl)]RSPRDCG-NH2; thioether N-12) is 53.9

New cases:
Value of remaining activity at 3 µM reported for the compound CC(C)[C@@H]1NC(=O)[C@@H](Cc2ccc(O)cc2)NC(=O)CSC[C@@H](C(=O)NCC(N)=O)NC(=O)[C@H](Cc2ccc(O)cc2)NC(=O)[C@H](CCCCN)NC(=O)[C@H](Cc2c[nH]c3ccccc23)NC(=O)[C@H](CCC(=O)O)NC(=O)[C@H](CCCCN)NC(=O)[C@H](CCCNC(=N)CF)NC(=O)[C@H](CO)NC(=O)[C@H](Cc2ccc(O)cc2)NC1=O [cP4_7, yVYS(2)KEWKYCG] ({CH2CO}-[dY]VYS[Orn(fluoroacetimidoyl)]KEWKYCG-NH2; thioether N-11) is 79
